assay: Plasma concentration in ICR mouse at 5 mg/kg, iv after 0.083 hrs by HPLC/MS/MS analysis; format: ADME, organism-based; parameters: dose 5 mg/kg, route intravenous
attribute-measured: concentration at 0.083 h (ng/mL)
Report as a plain number; the unit ng/mL is understood.

{"columns": ["compound", "concentration at 0.083 h, ng/mL"],
 "data": [
  ["CC(C)Cc1ccc([C@H](CF)C(=O)O)cc1", 31600]
]}

Return concentration at 0.083 h (reported value) for this compound: CC(C)Cc1ccc([C@H](C)C(=O)O)cc1 [DEXIBUPROFEN]
34600

###

assay: AUC (0 to infinity) in ICR mouse at 5 mg/kg, iv; assay type: ADME, organism-based; set-up: time infinity, dose 5 mg/kg, route intravenous; conditions: plasma
In this section, each of the molecules is paired with its reported AUC(0-inf).
State just the number; it will be interpreted in ng·h/mL.

{"columns": ["structure-smiles-string", "unit-of-measurement", "AUC(0-inf)"],
 "data": [
  ["CC(C)Cc1ccc([C@H](CF)C(=O)O)cc1", "ng·h/mL", 23300]
]}

Okay, next one:
Give a short answer stating reported AUC(0-inf) for CC(C)Cc1ccc([C@H](C)C(=O)O)cc1 .
34500
